FYI, the data here is from PubChem BioAssay (NCI).

Test system: UACC-62 melanoma
Test: NCI tumour cell line growth inhibition, 48 h
Measurement Name: TGI

Sample answers from the record:
>  <Molecule>
CNC(=S)OCCC(C)CCCC(C)C (stereo unspecified)

>  <TGI>
29.1 µM

$$$$
>  <Molecule>
Cc1cc(Cc2cc(C)c(N)cc2N)c(N)cc1N

>  <TGI>
> 100 µM

$$$$
>  <Molecule>
COC(=O)/C=C1\S/C(=N\NC(=O)c2cc3ccc2/C=C\c2ccc(cc2)/C=C\3)N(c2ccccc2)C1=O

>  <TGI>
4.21 µM

$$$$
>  <Molecule>
CC(=O)O[C@@H]1[C@H](C(C)C)[C@@H](OC(C)=O)C/C(C)=C/CC[C@]2(C)O[C@@H]12

>  <TGI>
> 100 µM

$$$$

Give one value of TGI per listed molecule.
1. CC(=O)NC(Cc1ccc(O)cc1)C(=O)O (stereo unspecified)
2. CN(C)C(=O)O/N=C1/C(c2c(O)[nH]c3ccccc23)=Nc2ccccc21

1: > 100 µM; 2: 98.6 µM

###

System: HCC-2998 colon
Test: NCI tumour cell line growth inhibition, 48 h
For each of the compounds below, state its TGI.

Sample answers from the record:
>  <Compound>
O=C(CCN1CCCCC1)C(=Cc1ccccc1)C(=O)CCN1CCCCC1

>  <TGI>
> 100 µM

$$$$
>  <Compound>
Nc1c(C(=O)c2cccc(CCS(N)(=O)=O)c2)cnn1-c1ccc(F)cc1

>  <TGI>
> 25 µM

$$$$
>  <Compound>
N#CCCC1C(C#N)C2(Cl)CC1(Cl)C(Cl)=C2Cl (stereo unspecified)

>  <TGI>
> 10 µM

$$$$
>  <Compound>
Cn1cc(C2=C(c3c4n(c5ccccc35)CCCCC4)C(=O)NC2=O)c2ccccc21

>  <TGI>
> 25 µM

$$$$
>  <Compound>
CC(C)(C)OC(=O)NCCCCC1NC(=O)[C@@H]2Cc3c([nH]c4ccccc34)C(C3CCCCC3)N2C1=O (stereo partly specified)

>  <TGI>
67.3 µM

$$$$
>  <Compound>
COC(=O)CC[N+]1=CCC(c2ccccc2)(c2ccccc2)O1

>  <TGI>
> 100 µM

$$$$
>  <Compound>
COc1cc(C2c3cc4c(cc3OC(N3CCOCC3)C2C)OCO4)ccc1O (stereo unspecified)

>  <TGI>
52.5 µM

$$$$
>  <Compound>
Cc1nc2sccn2c1-c1csc(Nc2ccccc2Cl)n1

>  <TGI>
45.3 µM

$$$$

Give one value of TGI per listed compound.
1. CC1(C)C(=O)/C=C\C(=O)C(C)(C)C2=CC=C(O2)C(C)(C)C(=O)/C=C\C(=O)C(C)(C)C2=CC=C1O2
2. C=CC1(C)CCC2C(=CCC3C2(C)CC(O)C(O)C3(C)COC2OC(C(=O)O)C(O)C(O)C2O)C1 (stereo unspecified) (tested in a mixture with another compound)
3. CCCCCCCCCCCC(=O)OCCOCCOCCOCCOCCOCc1ccccc1
4. CN(C)C(=S)N=C(Nc1ccccc1)Nc1ccccc1
5. CCC(C(=O)O)c1ccc(OC)cc1 (stereo unspecified)
6. Nc1ccccc1C#C/C=C\C#Cc1ccccc1OC(F)(F)F

1. > 100 µM
2. > 100 µM
3. > 100 µM
4. > 100 µM
5. > 100 µM
6. 14.7 µM

Give one value of TGI per listed compound.
1. CCC[CH2][Sn]([CH2]CCC)([S]c1cccc2cccnc12)[S]c1cccc2cccnc12
2. COc1ccc(N/N=C2\CCOc3ccc(C)cc3C2=O)cc1

0.3 µM
97.5 µM

###

Tested on: MCF7 breast
Experiment: NCI tumour cell line growth inhibition, 48 h
For each of the molecules below, state its TGI.

>  <Molecule>
O=C(N/N=C(/COc1ccc(Cl)cc1)N=Cc1ccncc1)c1ccncc1

>  <Experimental Target>
MCF7 breast

>  <Measurement Name>
TGI

>  <Result>
> 100 µM

$$$$

Give one value of TGI per listed molecule.
1. COc1ccc2cc(NC(=O)N/N=C\c3ccc([N+](=O)[O-])cc3)ccc2c1
2. [N-]=[N+]=NC[C@H]1OCO[C@H](CN=[N+]=[N-])[C@@H](OCCOCCCl)[C@@H]1OCCOCCCl
3. COc1ccc2c(c1)sc1nc(-c3ccccc3)c(-c3cccc4ccccc34)n12
4. O=C1CCCSC(=O)N1Cc1ccccc1
5. COc1cc2c(c(OC)c1OC)C(=O)[C@@H]1[C@H]2N1C(N)=O
6. COc1cc(/C=N\NC(=O)CN2CCN(c3cc4c(cc3F)c(=O)c(C(=O)N/N=C/c3cc(OC)c(OC)c(OC)c3)cn4C3CC3)CC2)cc(OC)c1OC

["> 100 µM", "> 100 µM", "> 33.4 µM", "> 100 µM", "> 100 µM", "> 100 µM"]

Give one value of TGI per listed molecule.
1. COc1cc2nc3n(c(=O)c2cc1OC)-c1ccc([N+](=O)[O-])cc1C3=O
2. C[C@@H]1CC[C@]2(C(=O)O)CC[C@]3(C)C(=CC[C@@H]4[C@@]5(C)CC[C@H](O)C(C)(C)[C@@H]5CC[C@]43C)[C@@H]2[C@]1(C)O
3. O=C1CCCc2cc3c(cc21)CC1(Cc2ccccc2C1)C3
4. CN1CCN(C2=NCCO2)CC1
5. C[N+](C)(C)CC(=O)N/N=C(/CC(=O)CC(C1=C(O)c2ccccc2OC1)c1ccccc1)C(=O)Nc1cccc(Cl)c1 (configuration not stated)

32 µM
35.7 µM
61.2 µM
> 100 µM
> 100 µM

###

Test system: LOX IMVI melanoma
Assay: NCI tumour cell line growth inhibition, 48 h
Measurement Name: TGI

Sample answers from the record:
>  <Compound>
C[C@]12CCC(O)CC1=CC[C@@H]1[C@@H]2CC[C@]2(C)C(=O)[C@H](n3ccnc3)C[C@@H]12 (stereo partly specified)

>  <TGI>
> 100 µM

$$$$
>  <Compound>
Nc1nc(Cl)cc(NCC2(CO)CC(=O)C2)n1

>  <TGI>
> 100 µM

$$$$
>  <Compound>
C1CN(c2nc3c(nnc4nc(N5CCOCC5)sc43)s2)CCO1

>  <TGI>
> 100 µM

$$$$
>  <Compound>
CC(=O)OC1OC([C@@H]2c3cccc(O)c3C(=O)c3c(O)cc(C)cc32)C(O)C(O)C1O (stereo partly specified)

>  <TGI>
0.0481 µM

$$$$
>  <Compound>
C=C1C(=O)O[C@@H]2C(=O)[C@@H](C)CCC/C(C)=C/CC[C@@]3(C)O[C@@H]3C[C@@H]12

>  <TGI>
36.9 µM

$$$$

Give one value of TGI per listed compound.
1. COc1cccc(-c2cc(-c3cccc(NS(C)(=O)=O)c3)nc(N)c2C#N)c1O
2. NS(=O)(=O)c1ccc2c(c1)OCCOCCOCCOCCO2

1. > 100 µM
2. > 100 µM

###

System: OVCAR-4 ovarian
Assay: NCI tumour cell line growth inhibition, 48 h; in the data active = GI50 below about 0.43 µM; inactive = the rest
# valid calls are t = active, f = inactive; nothing else

Worked examples, 5 compounds total:
>  <Compound>
Nc1nc(-n2c(-c3ccccc3)nc3c(Br)cc(Br)cc3c2=O)nnc1-c1cccc(Cl)c1Cl

>  <Classification>
f

$$$$
>  <Compound>
FC(F)(F)c1cccc(Nc2nc(-c3ccccc3)nc3ncccc23)c1

>  <Classification>
f

$$$$
>  <Compound>
O=C(Nc1ccc(-n2ccc3c(NC(=O)c4ccccc4)nccc32)cc1)c1ccc(Cl)c(C(F)(F)F)c1

>  <Classification>
f

$$$$
>  <Compound>
Cc1ccnc2c1ccc1c(C)ccnc12

>  <Classification>
t

$$$$
>  <Compound>
OCCN(CCO)c1ncnc2c1ncn2Cc1ccc(CCl)cc1

>  <Classification>
f

$$$$

Status in this test for COc1ccc2c(c1)sc1nc(-c3ccccc3)c(-c3cccc4ccccc34)n12 ?
f

Status in this test for O=C(Nc1ccccc1)c1c(O)[nH]c(=S)[nH]c1=O ?
f

Status in this test for COc1cc2c(c(OC)c1OC)-c1ccc(NNC(N)=S)c(=O)cc1[C@@H](NC(C)=O)CC2 ?
f

Status in this test for COC(=O)/C=C1\S/C(=N\NC(=O)c2cc3ccc2/C=C\c2ccc(cc2)/C=C\3)N(c2ccccc2)C1=O ?
f

Status in this test for NS(=O)(=O)OC[C@@H]1C[C@@H](n2ccc3c(NC4CCc5ccccc54)ncnc32)C[C@@H]1O (stereo partly specified) ?
f

Status in this test for C=C(C)C(OC)C(O)CC1(C)CC(O)CC(C)(C2CCC3OC(C4(C)CCC(Br)C(C)(C)O4)CCC3(C)O2)O1 (stereo unspecified) ?
f

###

Tested on: SN12C renal
Test: NCI tumour cell line growth inhibition, 48 h
Measurement Name: GI50

>  <Compound>
Cc1cc(-c2nc(C(=O)Nc3cc4oc(N5CCOCC5)nc4nc3N3CC[C@@H](O)C3)co2)ccn1

>  <Measurement Name>
GI50

>  <Result>
26 µM

$$$$
>  <Compound>
Cc1ccc2c(C)c3c(ccc4ccccc43)c[n+]2c1

>  <Measurement Name>
GI50

>  <Result>
2.18 µM

$$$$
>  <Compound>
COc1cc2c(cc1OCCCCN1CCN(CC(=O)Nc3ccc(Cl)cc3C(=O)c3ccccc3Cl)CC1)N=CC1CCCN1C2=O (stereo not drawn)

>  <Measurement Name>
GI50

>  <Result>
0.297 µM

$$$$

Give one value of GI50 per listed compound.
1. CC1CCc2nc[nH]c(=O)c21 (stereo not drawn)
2. Nc1ccccc1C#C/C=C\C#Cc1ccccc1OC(F)(F)F
3. CCN1CCN(Cc2ccc(NC(=O)c3cccc(C#Cc4cccc5[nH]nc(N)c45)c3)cc2C(F)(F)F)CC1
4. OC1CSSC1Cn1cnc2c(Nc3ccc(OCc4cccc(F)c4)c(Cl)c3)ncnc21 (stereo not drawn)
5. CC(=O)OC1OC([C@@H]2c3cccc(O)c3C(=O)c3c(O)cc(C)cc32)C(O)C(O)C1O (stereo partly drawn)
6. COc1cccc(-c2cc(-c3cccc(NS(C)(=O)=O)c3)nc(N)c2C#N)c1O
7. COC1/C=C/OC2(C)Oc3c(C)c(O)c4c(O)c(c(/C=N/Nc5ccc([N+](=O)[O-])cc5[N+](=O)[O-])c(O)c4c3C2=O)NC(=O)C(C)=C/C=C/C(C)C(O)C(C)C(O)C(C)C(OC(C)=O)C1C (stereo not drawn)
8. NC(N)=NS(=O)(=O)c1ccc(Nc2c3ccccc3nc3c(C(=O)NCCO)cccc23)cc1

1. > 100 µM
2. 9.85 µM
3. 0.584 µM
4. 4.02 µM
5. < 0.0179 µM
6. 0.505 µM
7. 10.2 µM
8. 26.7 µM

Give one value of GI50 per listed compound.
1. O=C(Nc1ccc(F)cc1)Nc1ccc(Cl)c([N+](=O)[O-])c1
2. Nc1nc(-n2c(-c3ccccc3)nc3c(Br)cc(Br)cc3c2=O)nnc1-c1cccc(Cl)c1Cl

1: 2.95 µM; 2: 18.8 µM
